Experiment: In vitro incubation of OTA with liver S9 in the presence of GSH or NAC
Assay type: in vitro ADME, minipig
Settings: minipig liver S9, with NADPH regenerating system, GSH or NAC 5 mM, t = 0, 60, 120 min
observationType: Time-dependent formation from OTA

Use these answered entries as a reference point.
C[C@@H]1Cc2c(O)c(SC[C@H](NC(=O)CC[C@H](N)C(=O)O)C(=O)NCC(=O)O)c(C(=O)N[C@@H](Cc3ccccc3)C(=O)O)c(O)c2C(=O)O1 | not evident
C[C@@H]1Cc2c(O)cc(C(=O)N[C@@H](Cc3ccccc3)C(=O)O)c(O)c2C(=O)O1 | not observed
CC(=O)NC(CSc1c(O)c2c(c(O)c1C(=O)N[C@@H](Cc1ccccc1)C(=O)O)C(=O)O[C@H](C)C2)C(=O)O (some centres unmarked) | not evident
CC(=O)NC(CSc1cc(C(=O)N[C@@H](Cc2ccccc2)C(=O)O)c(O)c2c1C[C@@H](C)OC2=O)C(=O)O (some centres unmarked) | not evident
C[C@H]1OC(=O)c2c(ccc(C(=O)N[C@@H](Cc3ccccc3)C(=O)O)c2O)[C@H]1O [4-hydroxy-OTB] | not observed

Proceed to the following item.
Q. Given the entry C[C@@H]1Cc2c(SC[C@H](NC(=O)CC[C@H](N)C(=O)O)C(=O)NCC(=O)O)cc(C(=O)N[C@@H](Cc3ccccc3)C(=O)O)c(O)c2C(=O)O1 , report its measured Time-dependent formation from OTA.
A. not evident

---

Assay: Direct LC–MS/MS analysis of OTA metabolites in urine of OTA-treated rats
Type: in vivo, male F344/N rats
Settings: OTA up to 2 mg/kg bw, negative ionization mode
observationType: Detection in urine of OTA-treated rats by direct LC–MS/MS (MRM)

C[C@@H]1Cc2c(Cl)cc(C(=O)O)c(O)c2C(=O)O1 [OTalpha] | consistently found
C[C@@H]1Cc2c(O)cc(C(=O)N[C@@H](Cc3ccccc3)C(=O)O)c(O)c2C(=O)O1 [OTHQ] | not detected
C[C@@H]1Cc2c(Cl)cc(C(=O)N[C@@H](Cc3ccccc3)C(=O)O)c(O)c2C(=O)O1 [OTA, Ochratoxin A] | consistently found
CC(=O)NC(CSc1c(O)c2c(c(O)c1C(=O)N[C@@H](Cc1ccccc1)C(=O)O)C(=O)O[C@H](C)C2)C(=O)O (stereo partly shown) [OTHQ-NAC] | not detected

---

Assay: In vitro incubation of OTA with liver S9 in the presence of GSH or NAC
Type: in vitro ADME, rat
Settings: rat liver S9, with NADPH regenerating system, GSH or NAC 5 mM, t = 0, 60, 120 min
observationType: Time-dependent formation from OTA

CC(=O)NC(CSc1c(O)c2c(c(O)c1C(=O)N[C@@H](Cc1ccccc1)C(=O)O)C(=O)O[C@H](C)C2)C(=O)O (stereo partly shown) | not evident
CC(=O)NC(CSc1cc(C(=O)N[C@@H](Cc2ccccc2)C(=O)O)c(O)c2c1C[C@@H](C)OC2=O)C(=O)O (stereo partly shown) | not evident

---

Experiment: In vitro incubation of OTA with liver S9 in the presence of GSH or NAC
Format: in vitro ADME, rat
Conditions: rat liver S9, with NADPH regenerating system, GSH or NAC 5 mM, t = 0, 60, 120 min
observationType: Time-dependent formation from OTA

C[C@@H]1Cc2c(SC[C@H](NC(=O)CC[C@H](N)C(=O)O)C(=O)NCC(=O)O)cc(C(=O)N[C@@H](Cc3ccccc3)C(=O)O)c(O)c2C(=O)O1 | not evident
C[C@@H]1Cc2c(O)c(SC[C@H](NC(=O)CC[C@H](N)C(=O)O)C(=O)NCC(=O)O)c(C(=O)N[C@@H](Cc3ccccc3)C(=O)O)c(O)c2C(=O)O1 | not evident

---

Experiment: In vitro incubation of OTA with liver S9 in the presence of GSH or NAC
Format: in vitro ADME, rabbit
Conditions: rabbit liver S9, with NADPH regenerating system, GSH or NAC 5 mM, t = 0, 60, 120 min
observationType: Time-dependent formation from OTA

C[C@@H]1Cc2c(O)c(SC[C@H](NC(=O)CC[C@H](N)C(=O)O)C(=O)NCC(=O)O)c(C(=O)N[C@@H](Cc3ccccc3)C(=O)O)c(O)c2C(=O)O1 [OTHQ-GSH] | not evident
C[C@@H]1Cc2c(SC[C@H](NC(=O)CC[C@H](N)C(=O)O)C(=O)NCC(=O)O)cc(C(=O)N[C@@H](Cc3ccccc3)C(=O)O)c(O)c2C(=O)O1 [OTB-GSH] | not evident
CC(=O)NC(CSc1cc(C(=O)N[C@@H](Cc2ccccc2)C(=O)O)c(O)c2c1C[C@@H](C)OC2=O)C(=O)O (stereo partly shown) [OTB-NAC] | not evident

---

Assay: In vitro incubation of OTA with liver S9 in the presence of GSH or NAC
Assay type: in vitro ADME, rabbit
Conditions: rabbit liver S9, with NADPH regenerating system, GSH or NAC 5 mM, t = 0, 60, 120 min
observationType: Time-dependent formation from OTA

C[C@@H]1Cc2c(O)cc(C(=O)N[C@@H](Cc3ccccc3)C(=O)O)c(O)c2C(=O)O1 | not observed
C[C@H]1OC(=O)c2c(ccc(C(=O)N[C@@H](Cc3ccccc3)C(=O)O)c2O)[C@H]1O [4-hydroxy-OTB] | not observed

---

Test: In vitro incubation of OTA with liver S9 in the presence of GSH or NAC
Type: in vitro ADME, human
Details: human liver S9, with NADPH regenerating system, GSH or NAC 5 mM, t = 0, 60, 120 min
observationType: Time-dependent formation from OTA

Consider the reported Time-dependent formation from OTA for these compounds:
C[C@@H]1Cc2c(O)c(SC[C@H](NC(=O)CC[C@H](N)C(=O)O)C(=O)NCC(=O)O)c(C(=O)N[C@@H](Cc3ccccc3)C(=O)O)c(O)c2C(=O)O1 [OTHQ-GSH] | not evident
C[C@H]1OC(=O)c2c(ccc(C(=O)N[C@@H](Cc3ccccc3)C(=O)O)c2O)[C@H]1O [4-hydroxy-OTB] | not observed
C[C@@H]1Cc2c(O)cc(C(=O)N[C@@H](Cc3ccccc3)C(=O)O)c(O)c2C(=O)O1 [OTHQ] | not observed
CC(=O)NC(CSc1c(O)c2c(c(O)c1C(=O)N[C@@H](Cc1ccccc1)C(=O)O)C(=O)O[C@H](C)C2)C(=O)O (stereo partly shown) [OTHQ-NAC] | not evident
CC(=O)NC(CSc1cc(C(=O)N[C@@H](Cc2ccccc2)C(=O)O)c(O)c2c1C[C@@H](C)OC2=O)C(=O)O (stereo partly shown) [OTB-NAC] | not evident

Now examine the next entry.
Q. May I ask what Time-dependent formation from OTA has been recorded for C[C@@H]1Cc2c(SC[C@H](NC(=O)CC[C@H](N)C(=O)O)C(=O)NCC(=O)O)cc(C(=O)N[C@@H](Cc3ccccc3)C(=O)O)c(O)c2C(=O)O1 [OTB-GSH] ?
A. not evident
